Test System: PARP2 (Homo sapiens)
Sequence (Q9UGN5 whole entry, canonical isoform): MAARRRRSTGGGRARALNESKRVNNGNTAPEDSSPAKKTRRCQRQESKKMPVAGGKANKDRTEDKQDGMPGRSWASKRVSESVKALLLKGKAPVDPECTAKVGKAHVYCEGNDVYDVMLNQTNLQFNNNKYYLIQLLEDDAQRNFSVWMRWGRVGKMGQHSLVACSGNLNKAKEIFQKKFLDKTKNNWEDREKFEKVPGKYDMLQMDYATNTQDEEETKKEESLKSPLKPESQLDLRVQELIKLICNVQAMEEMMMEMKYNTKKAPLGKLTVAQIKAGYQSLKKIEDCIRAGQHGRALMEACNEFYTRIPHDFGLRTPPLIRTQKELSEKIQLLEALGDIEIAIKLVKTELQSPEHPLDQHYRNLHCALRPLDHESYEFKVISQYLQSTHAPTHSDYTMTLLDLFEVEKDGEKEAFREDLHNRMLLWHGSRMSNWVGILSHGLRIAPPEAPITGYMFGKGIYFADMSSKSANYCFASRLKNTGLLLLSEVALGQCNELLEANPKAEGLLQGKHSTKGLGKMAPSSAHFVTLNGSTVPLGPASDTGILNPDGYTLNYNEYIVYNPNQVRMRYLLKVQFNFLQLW
Protocol: Specificity testing by MST assay
Format: binding
Metric Name: Kd

Reported Kd, compound NC(N)=NCCC[C@H](NCN1CCN(C(=O)c2cc(Cc3n[nH]c(=O)c4ccccc34)ccc2F)CC1)C(=O)O : ____
> 10 µM

----------
Test System: PARP13 (Homo sapiens)
Sequence (Q7Z2W4 whole entry, canonical isoform): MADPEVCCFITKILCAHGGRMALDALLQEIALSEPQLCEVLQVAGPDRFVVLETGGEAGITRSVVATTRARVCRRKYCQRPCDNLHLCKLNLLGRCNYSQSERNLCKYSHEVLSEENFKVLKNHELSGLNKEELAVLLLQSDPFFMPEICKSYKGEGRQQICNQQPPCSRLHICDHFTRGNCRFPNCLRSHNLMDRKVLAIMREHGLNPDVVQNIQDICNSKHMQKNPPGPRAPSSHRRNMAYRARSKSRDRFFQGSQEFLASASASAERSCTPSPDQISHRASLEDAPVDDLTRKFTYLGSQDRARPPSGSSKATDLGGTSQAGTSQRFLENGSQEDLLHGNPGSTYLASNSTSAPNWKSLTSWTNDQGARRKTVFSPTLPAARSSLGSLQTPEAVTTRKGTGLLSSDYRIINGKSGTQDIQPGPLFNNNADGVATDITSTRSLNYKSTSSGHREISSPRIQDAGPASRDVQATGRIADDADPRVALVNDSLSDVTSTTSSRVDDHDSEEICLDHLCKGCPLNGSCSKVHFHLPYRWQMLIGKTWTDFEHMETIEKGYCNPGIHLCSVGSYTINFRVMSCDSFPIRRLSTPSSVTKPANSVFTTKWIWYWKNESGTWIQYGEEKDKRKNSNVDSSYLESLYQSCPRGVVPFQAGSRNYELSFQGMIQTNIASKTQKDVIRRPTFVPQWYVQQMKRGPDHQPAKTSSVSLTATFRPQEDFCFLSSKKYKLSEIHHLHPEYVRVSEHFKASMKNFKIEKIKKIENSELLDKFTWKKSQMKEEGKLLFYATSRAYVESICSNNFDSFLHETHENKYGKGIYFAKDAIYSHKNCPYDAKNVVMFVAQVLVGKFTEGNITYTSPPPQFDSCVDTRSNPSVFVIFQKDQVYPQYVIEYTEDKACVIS
Protocol: Selectivity profile (other isoforms of PARP and NRP family)
Metric Name: IC50

Reported IC50, compound NC(N)=NCCC[C@H](NCN1CCN(C(=O)c2cc(Cc3n[nH]c(=O)c4ccccc34)ccc2F)CC1)C(=O)O : ____
> 10 µM

----------
Target protein (sequence): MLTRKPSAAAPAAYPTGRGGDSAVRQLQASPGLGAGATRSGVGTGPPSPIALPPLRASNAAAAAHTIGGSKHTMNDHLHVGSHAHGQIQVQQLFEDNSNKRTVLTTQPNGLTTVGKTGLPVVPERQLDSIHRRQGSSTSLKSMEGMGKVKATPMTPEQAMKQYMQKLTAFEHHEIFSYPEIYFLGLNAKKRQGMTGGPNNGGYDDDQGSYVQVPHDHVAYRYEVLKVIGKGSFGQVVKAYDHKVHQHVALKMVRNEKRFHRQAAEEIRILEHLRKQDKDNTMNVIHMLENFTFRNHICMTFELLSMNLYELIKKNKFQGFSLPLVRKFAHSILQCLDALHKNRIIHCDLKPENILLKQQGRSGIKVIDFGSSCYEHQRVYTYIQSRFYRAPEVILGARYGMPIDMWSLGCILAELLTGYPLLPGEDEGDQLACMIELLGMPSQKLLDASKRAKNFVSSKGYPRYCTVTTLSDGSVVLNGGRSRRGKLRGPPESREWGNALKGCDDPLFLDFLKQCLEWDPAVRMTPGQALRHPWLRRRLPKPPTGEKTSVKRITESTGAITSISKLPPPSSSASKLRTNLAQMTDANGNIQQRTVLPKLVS
Metric Name: IC50

Reported IC50, compound NC(N)=NCCC[C@H](NCN1CCN(C(=O)c2cc(Cc3n[nH]c(=O)c4ccccc34)ccc2F)CC1)C(=O)O : ____
> 10 µM

----------
Test System: PARP2 (Homo sapiens)
Protocol: Selectivity profile (other isoforms of PARP and NRP family)
Metric Name: IC50

Reported IC50, molecule NC(N)=NCCC[C@H](NCN1CCN(C(=O)c2cc(Cc3n[nH]c(=O)c4ccccc34)ccc2F)CC1)C(=O)O [PPNR-4] : ____
> 10 µM

----------
Test System: HIPK1 (Homo sapiens, UniProt Q86Z02)
Sequence (Q86Z02 whole entry): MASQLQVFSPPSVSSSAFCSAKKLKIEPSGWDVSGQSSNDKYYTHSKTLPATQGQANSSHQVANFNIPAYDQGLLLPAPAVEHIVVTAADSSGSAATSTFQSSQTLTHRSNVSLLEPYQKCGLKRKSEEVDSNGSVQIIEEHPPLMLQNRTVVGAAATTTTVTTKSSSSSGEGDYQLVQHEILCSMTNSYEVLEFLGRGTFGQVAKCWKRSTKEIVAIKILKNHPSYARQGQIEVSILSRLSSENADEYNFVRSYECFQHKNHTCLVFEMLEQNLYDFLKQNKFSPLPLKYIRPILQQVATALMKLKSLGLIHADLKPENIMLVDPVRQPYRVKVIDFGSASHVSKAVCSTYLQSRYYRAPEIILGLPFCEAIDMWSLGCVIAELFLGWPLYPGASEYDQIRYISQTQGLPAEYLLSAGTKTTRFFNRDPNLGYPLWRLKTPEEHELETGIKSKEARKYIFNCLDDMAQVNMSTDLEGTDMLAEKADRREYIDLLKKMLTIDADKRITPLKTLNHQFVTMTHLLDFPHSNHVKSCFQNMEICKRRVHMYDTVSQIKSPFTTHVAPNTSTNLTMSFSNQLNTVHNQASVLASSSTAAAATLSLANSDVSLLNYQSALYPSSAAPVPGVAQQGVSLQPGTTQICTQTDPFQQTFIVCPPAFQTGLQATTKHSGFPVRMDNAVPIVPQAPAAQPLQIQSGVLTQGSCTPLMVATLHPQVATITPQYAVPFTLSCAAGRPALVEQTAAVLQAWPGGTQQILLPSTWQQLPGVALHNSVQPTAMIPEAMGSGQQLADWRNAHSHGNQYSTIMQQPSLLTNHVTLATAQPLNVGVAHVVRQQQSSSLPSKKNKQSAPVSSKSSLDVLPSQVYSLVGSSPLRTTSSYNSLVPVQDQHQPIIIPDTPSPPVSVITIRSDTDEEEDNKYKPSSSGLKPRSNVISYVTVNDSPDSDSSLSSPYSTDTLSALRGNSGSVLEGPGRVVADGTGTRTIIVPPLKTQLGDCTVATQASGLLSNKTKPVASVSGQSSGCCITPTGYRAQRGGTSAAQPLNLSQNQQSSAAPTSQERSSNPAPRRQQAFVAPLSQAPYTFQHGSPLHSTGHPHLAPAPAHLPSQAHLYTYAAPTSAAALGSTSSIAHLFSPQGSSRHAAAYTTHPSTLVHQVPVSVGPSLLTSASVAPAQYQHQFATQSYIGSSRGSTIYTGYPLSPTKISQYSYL
Metric Name: IC50

Reported IC50, compound NC(N)=NCCC[C@H](NCN1CCN(C(=O)c2cc(Cc3n[nH]c(=O)c4ccccc34)ccc2F)CC1)C(=O)O : ____
> 10 µM

----------
Test System: UniProt O96017
Metric Name: IC50

Reported IC50, molecule NC(N)=NCCC[C@H](NCN1CCN(C(=O)c2cc(Cc3n[nH]c(=O)c4ccccc34)ccc2F)CC1)C(=O)O [PPNR-4] : ____
> 10 µM

----------
Test System: PARP10 (Homo sapiens, UniProt Q53GL7)
Protocol: Selectivity profile (other isoforms of PARP and NRP family)
pIC50: −log10 of the molar value.
Metric Name: pIC50

Reported pIC50, molecule NC(N)=NCCC[C@H](NCN1CCN(C(=O)c2cc(Cc3n[nH]c(=O)c4ccccc34)ccc2F)CC1)C(=O)O [PPNR-4] : ____
< 5.00

----------
Test System: FLT1 (Homo sapiens, UniProt P17948)
Metric Name: IC50

Reported IC50, compound NC(N)=NCCC[C@H](NCN1CCN(C(=O)c2cc(Cc3n[nH]c(=O)c4ccccc34)ccc2F)CC1)C(=O)O [PPNR-4] : ____
> 10 µM

----------
Test System: CK1ε (Homo sapiens, UniProt P49674)
Sequence (P49674 whole entry): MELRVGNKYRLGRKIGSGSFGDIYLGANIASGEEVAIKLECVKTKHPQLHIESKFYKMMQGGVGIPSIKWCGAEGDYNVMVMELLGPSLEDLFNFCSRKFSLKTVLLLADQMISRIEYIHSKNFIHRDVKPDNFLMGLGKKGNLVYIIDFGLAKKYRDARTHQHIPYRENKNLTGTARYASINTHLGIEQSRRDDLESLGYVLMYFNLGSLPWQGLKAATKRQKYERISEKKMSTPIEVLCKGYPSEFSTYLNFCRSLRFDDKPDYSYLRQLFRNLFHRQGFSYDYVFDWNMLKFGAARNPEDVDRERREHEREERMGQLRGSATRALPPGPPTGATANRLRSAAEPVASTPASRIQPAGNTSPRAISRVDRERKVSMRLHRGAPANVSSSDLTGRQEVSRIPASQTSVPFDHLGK
pIC50: −log10 of the molar value.
Metric Name: pIC50

Kindly state the measured pIC50 obtained for NC(N)=NCCC[C@H](NCN1CCN(C(=O)c2cc(Cc3n[nH]c(=O)c4ccccc34)ccc2F)CC1)C(=O)O with CK1ε (Homo sapiens, UniProt P49674).
< 5.00

----------
Protocol: In vivo pharmacokinetic studies
Set-up: species or system SD rats
Condition Parameters: Sprague-Dawley (SD), rat, plasma, po, 10 mg/kg
Metric Name: bioavailability
The reply must contain the numeric value and, after it, the unit.

Reported bioavailability, molecule NC(N)=NCCC[C@H](NCN1CCN(C(=O)c2cc(Cc3n[nH]c(=O)c4ccccc34)ccc2F)CC1)C(=O)O : ____
66.5%

----------
Test System: NRP2 (Homo sapiens, UniProt O60462)
Protocol: Selectivity profile (other isoforms of PARP and NRP family)
Metric Name: IC50

Reported IC50, compound NC(N)=NCCC[C@H](NCN1CCN(C(=O)c2cc(Cc3n[nH]c(=O)c4ccccc34)ccc2F)CC1)C(=O)O : ____
> 10 µM

----------
Target chain: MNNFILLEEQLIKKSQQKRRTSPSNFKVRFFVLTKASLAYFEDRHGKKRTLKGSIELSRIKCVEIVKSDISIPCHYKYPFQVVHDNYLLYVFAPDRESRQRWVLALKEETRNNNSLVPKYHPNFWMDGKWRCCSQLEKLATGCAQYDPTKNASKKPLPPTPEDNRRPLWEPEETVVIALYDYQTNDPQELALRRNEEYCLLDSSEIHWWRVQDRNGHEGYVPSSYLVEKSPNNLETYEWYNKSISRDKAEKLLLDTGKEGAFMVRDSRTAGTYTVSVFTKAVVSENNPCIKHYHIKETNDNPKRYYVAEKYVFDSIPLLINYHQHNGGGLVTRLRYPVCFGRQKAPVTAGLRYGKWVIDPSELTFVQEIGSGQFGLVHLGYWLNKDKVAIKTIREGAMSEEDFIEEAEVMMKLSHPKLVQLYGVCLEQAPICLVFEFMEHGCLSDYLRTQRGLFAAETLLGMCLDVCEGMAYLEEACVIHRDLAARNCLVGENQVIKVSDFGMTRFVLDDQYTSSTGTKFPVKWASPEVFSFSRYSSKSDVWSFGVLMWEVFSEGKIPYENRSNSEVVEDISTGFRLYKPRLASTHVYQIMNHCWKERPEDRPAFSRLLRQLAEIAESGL
pIC50: −log10 of the molar value.
Metric Name: pIC50

Reported pIC50, molecule NC(N)=NCCC[C@H](NCN1CCN(C(=O)c2cc(Cc3n[nH]c(=O)c4ccccc34)ccc2F)CC1)C(=O)O [PPNR-4] : ____
< 5.00

----------
Sequence of the target: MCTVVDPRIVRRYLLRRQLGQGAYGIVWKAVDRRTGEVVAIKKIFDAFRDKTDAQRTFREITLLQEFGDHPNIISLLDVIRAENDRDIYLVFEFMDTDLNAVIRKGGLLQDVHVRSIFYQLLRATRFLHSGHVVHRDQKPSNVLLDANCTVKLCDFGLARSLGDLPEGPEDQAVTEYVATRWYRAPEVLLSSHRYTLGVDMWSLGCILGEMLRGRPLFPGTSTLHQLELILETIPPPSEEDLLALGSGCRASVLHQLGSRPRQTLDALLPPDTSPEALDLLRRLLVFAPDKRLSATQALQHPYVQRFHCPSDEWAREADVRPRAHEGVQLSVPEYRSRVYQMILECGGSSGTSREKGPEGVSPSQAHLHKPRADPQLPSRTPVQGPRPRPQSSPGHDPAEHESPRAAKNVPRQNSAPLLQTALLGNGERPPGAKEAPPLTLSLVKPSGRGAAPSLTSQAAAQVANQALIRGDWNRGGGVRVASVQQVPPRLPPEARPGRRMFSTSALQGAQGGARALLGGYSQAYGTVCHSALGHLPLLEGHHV
pIC50: −log10 of the molar value.
Metric Name: pIC50

Reported pIC50, compound NC(N)=NCCC[C@H](NCN1CCN(C(=O)c2cc(Cc3n[nH]c(=O)c4ccccc34)ccc2F)CC1)C(=O)O [PPNR-4] : ____
< 5.00

----------
Test System: UniProt:P49759
Metric Name: IC50

Reported IC50, molecule NC(N)=NCCC[C@H](NCN1CCN(C(=O)c2cc(Cc3n[nH]c(=O)c4ccccc34)ccc2F)CC1)C(=O)O : ____
> 10 µM

----------
Test System: MARK1 (Homo sapiens, UniProt Q9P0L2)
Sequence (Q9P0L2 whole entry): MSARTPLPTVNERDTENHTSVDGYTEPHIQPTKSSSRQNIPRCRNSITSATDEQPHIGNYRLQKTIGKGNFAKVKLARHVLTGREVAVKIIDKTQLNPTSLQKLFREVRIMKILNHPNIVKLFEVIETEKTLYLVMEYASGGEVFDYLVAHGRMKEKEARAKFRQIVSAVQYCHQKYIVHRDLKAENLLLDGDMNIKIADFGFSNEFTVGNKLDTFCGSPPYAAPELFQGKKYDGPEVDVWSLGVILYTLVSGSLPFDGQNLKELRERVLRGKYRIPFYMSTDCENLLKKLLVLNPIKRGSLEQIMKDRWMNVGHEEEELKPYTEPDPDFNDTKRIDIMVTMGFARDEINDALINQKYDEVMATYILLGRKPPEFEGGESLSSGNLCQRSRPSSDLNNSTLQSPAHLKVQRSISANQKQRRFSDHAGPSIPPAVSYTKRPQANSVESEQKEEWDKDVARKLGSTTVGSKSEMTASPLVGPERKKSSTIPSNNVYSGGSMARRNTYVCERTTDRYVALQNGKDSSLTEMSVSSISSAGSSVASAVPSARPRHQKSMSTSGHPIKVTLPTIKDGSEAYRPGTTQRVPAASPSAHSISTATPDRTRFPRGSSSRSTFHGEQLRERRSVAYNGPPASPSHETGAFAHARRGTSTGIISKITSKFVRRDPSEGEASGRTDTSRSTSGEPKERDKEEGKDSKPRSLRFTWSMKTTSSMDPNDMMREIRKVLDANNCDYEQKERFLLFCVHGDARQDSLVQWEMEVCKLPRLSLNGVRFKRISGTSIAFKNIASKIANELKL
pIC50: −log10 of the molar value.
Metric Name: pIC50

Reported pIC50, molecule NC(N)=NCCC[C@H](NCN1CCN(C(=O)c2cc(Cc3n[nH]c(=O)c4ccccc34)ccc2F)CC1)C(=O)O [PPNR-4] : ____
< 5.00

----------
Test System: UniProtKB P16591
Sequence (P16591 whole entry, species assumed): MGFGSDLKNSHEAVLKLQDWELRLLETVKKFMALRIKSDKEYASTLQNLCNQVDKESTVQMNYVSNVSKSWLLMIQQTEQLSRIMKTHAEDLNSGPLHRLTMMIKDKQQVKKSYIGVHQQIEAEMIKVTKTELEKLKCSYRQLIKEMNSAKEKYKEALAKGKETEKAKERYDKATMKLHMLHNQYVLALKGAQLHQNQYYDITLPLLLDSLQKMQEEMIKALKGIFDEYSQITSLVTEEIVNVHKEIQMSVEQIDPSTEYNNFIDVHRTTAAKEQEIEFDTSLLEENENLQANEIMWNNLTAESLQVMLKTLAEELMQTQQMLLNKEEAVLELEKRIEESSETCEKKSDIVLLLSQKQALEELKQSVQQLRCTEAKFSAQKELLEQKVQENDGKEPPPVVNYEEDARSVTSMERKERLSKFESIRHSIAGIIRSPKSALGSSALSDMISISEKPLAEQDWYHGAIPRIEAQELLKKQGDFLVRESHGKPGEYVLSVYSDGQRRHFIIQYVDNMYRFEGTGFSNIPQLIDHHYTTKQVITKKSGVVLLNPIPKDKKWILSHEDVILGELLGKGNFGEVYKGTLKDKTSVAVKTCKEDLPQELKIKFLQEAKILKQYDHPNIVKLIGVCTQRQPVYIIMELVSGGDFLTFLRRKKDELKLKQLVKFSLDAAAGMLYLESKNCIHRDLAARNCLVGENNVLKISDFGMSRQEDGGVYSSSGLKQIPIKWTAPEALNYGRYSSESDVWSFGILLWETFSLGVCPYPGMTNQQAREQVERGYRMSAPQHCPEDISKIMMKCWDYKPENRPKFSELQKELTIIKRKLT
Metric Name: IC50

Kindly state the measured IC50 obtained for NC(N)=NCCC[C@H](NCN1CCN(C(=O)c2cc(Cc3n[nH]c(=O)c4ccccc34)ccc2F)CC1)C(=O)O [PPNR-4] with UniProtKB P16591.
> 10 µM

----------
Target protein (sequence): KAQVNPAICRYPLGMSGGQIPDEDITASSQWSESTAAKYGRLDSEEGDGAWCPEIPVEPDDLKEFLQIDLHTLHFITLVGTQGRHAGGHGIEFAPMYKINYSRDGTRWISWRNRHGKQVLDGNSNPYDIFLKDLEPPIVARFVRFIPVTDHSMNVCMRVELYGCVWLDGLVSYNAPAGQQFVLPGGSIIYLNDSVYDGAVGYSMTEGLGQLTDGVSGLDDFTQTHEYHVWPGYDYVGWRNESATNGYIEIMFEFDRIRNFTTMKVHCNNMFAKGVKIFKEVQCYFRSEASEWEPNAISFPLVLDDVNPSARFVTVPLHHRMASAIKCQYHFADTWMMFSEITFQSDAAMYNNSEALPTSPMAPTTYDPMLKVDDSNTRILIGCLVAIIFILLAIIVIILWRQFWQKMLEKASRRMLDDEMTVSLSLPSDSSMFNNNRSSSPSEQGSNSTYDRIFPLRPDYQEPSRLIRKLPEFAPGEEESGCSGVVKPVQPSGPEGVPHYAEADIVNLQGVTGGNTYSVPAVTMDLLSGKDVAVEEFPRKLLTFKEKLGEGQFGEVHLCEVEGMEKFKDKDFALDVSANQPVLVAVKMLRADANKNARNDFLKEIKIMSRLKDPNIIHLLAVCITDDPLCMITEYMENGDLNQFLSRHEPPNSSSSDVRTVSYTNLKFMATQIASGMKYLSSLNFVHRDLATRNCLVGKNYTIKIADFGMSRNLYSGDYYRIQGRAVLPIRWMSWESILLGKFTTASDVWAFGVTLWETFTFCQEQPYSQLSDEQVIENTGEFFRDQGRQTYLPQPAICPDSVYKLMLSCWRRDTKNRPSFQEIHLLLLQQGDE
pIC50: −log10 of the molar value.
Metric Name: pIC50

Reported pIC50, compound NC(N)=NCCC[C@H](NCN1CCN(C(=O)c2cc(Cc3n[nH]c(=O)c4ccccc34)ccc2F)CC1)C(=O)O : ____
< 5.00

Cited source for all entries: paper PMC11637875
